run-description: yeast display, Sf9 membrane polyspecificity reagent, FACS + sequencing; frameworks hold sequencing errors

{"columns": ["query-sequence", "polyreactivity (PSR sort gate)"],
 "data": [
  ["QVQLVESGGGLVQAGGSLRLSCAASGFIFEYYAMGWYRQAPGKERELVAAISRGGRTNYADSVKGRFTISRDNAKNTVYLQMNSLKPEDTAVYYCARDYTFYRQVRKYGYWGQGTQVTVSS", "high polyreactivity"],
  ["QVQLVESGGGLGQAGGSLRLSCAASGSIIPWNVMGWSRQARGKEREFVAGITFRVGSTYYADSVKGRFTISRDNAKNTVYLQMNSLKPEDTAVYYCAALIRAVDRYTYRYGYWGQGTQVTVSS", "high polyreactivity"]
]}

###

run-description: yeast display, Sf9 membrane polyspecificity reagent, FACS + sequencing; frameworks hold sequencing errors
endpoint-label: polyreactivity (PSR sort gate)

{"columns": ["query-sequence", "measured"],
 "data": [
  ["QVHLVESGGGLVQAGGSHRLSCAASGSTLRWNAMGWYRQAPGKERELVAAITYSGGSTYYADSVKGRFTISRDNAKNTVYFQMNSLKPEDTAVYYCAADSYRYRPGYGPVLYDYWGQGTQVTVSS", "high polyreactivity"],
  ["QVHLVESGGGLVQAGGSLRLSGAASGLTFSGNAMGWYRQAPGKERELVAAISWNGGRTYYADSVKGRFTISRDNAKNTVYLQMNSLKPEDTAVYYCAAEVRYSTYEDYDYWGQGTEVTVSS", "low polyreactivity"],
  ["QVQLVESGGGLVQAGGSLRLSCAASGYTSSLNAMGWYRQAPGKERELVARITTDGTSTYYADSVKGRFTISRDNANNTVYLQMNSLKPEDTAVYYCAAEYSYVQFGFGYWGQGTQVTVSS", "low polyreactivity"],
  ["QVQLVESGGGLVQAGCSLRLSCAASGRIFTSYAMGWYRQAPGKERELVAAISRSGARTYYADTVKGRFTISRDNAKNTVYLQMNSLKPEDTAVYDCAAVTVAGYDYWGQGTQVTVSS", "high polyreactivity"],
  ["QVQLVESGGGLVQAGGSLRLSCAASRIIFTHNAMGWYRQAPGKERELVAAISWSGGSTYYADSVNGRFTISRDNAKNTVYIEMNSLKPEDTAVYYCAAPYFTYGQDDDDYWGQGTQVTVSS", "low polyreactivity"],
  ["QGQLVESGGGLVQAGGSLRLSCAASGRTFTYYVMGWSRQAPGKERELVAAISWTGGSTNYADSVMGRFTISRDNAKNTVYLQMNSRKPEDTAVYYCNAGGFFGYGRPGYYWGQGTQVTVSS", "low polyreactivity"],
  ["QVQLVESGGGLVQAGGSLRLSCAASGRIFSWNTMGWYRQAPGKERELVAAITQSGSTYYADSVKGRFTISRDNAKNTVYLQMNSLKPEDTAVYYCAAVVGRRLYPRYDYWGQGTQVTVSS", "high polyreactivity"],
  ["QVQLVESGGGLVQAGGSLRLSCAASGFIVRSYAMGWYRQAPGKERELVAVISRRGVNTHYADSVKGRFTISRDNAKNTVYFQMNSLKPEDTAVYYCAKGLTALGDYWGQGTQVTVSS", "high polyreactivity"],
  ["QVQHVESGGGLVQAGGSLRLSCAASGSILYLYAMGWYRQAPGKERELVAAISLGDGSTYYADSVKGRFTISRDNAKNTVYLQMNSLKPEDTAVYYCNADRYTYWQDYNYWGQGTQVTVSS", "low polyreactivity"],
  ["QVQLVETGGGLVQAGVSHRLSFASSGSTFVEYVMGWYRQAPGKERELVARITWGGGITYYADSVKVRFTFSRDNAKNTVYLLMNRVNPEDNAVYYCAAGTITYGYGYDYWGQGTQVSVSS", "low polyreactivity"]
]}
